# measurement-target: Inadl_1, Q8NI35
# Sequence (Q8NI35 113-229): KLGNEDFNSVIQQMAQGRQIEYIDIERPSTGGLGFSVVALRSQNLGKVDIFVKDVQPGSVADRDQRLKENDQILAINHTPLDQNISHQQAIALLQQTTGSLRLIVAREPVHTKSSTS
# experiment: holdup assay
# Design: key: below the threshold = too weak to quantify, mostly under pKd 3.1 to 4
# condition: plain residues with an end cap or a label only (N-terminal biotin on a linker: ttds)
Please provide measured pKd for the entries that follow.
Give bare numbers.

[Q] Which pKd value is on record for PRVKPQRSKV [PPP1R13L, Q8WUF5] ?
[A] 3.66

Here is the next item to consider.
[Q] Which pKd value is on record for KKYVDAETSL [SLC4A7, Q9Y6M7] ?
[A] 3.55
